The measured values listed here are drawn from patent US8859615B2.

assay_text: Human PBMC lymphocyte viability by actual cell counts (hemacytometer; Tables 8A, 8B, FIG. 9)
Assay type: cell-based
experimental_parameters: human; 3.0 μM, 120-hrs; read-out: viable cells relative to the starting point (control)
value_type: viability at 120 h, 3 µM (%)
One number for each entry, in %.

For the compound shown here, "C=C[C@@H](O)C#CC#CC[C@@H](O)[C@H](O)CCCCCCC" , give the reported viability at 120 h, 3 µM.
74.1

---

Tested on: CCRF-CEM/VBL100 vinblastine-resistant cells
assay_text: In vitro cytotoxicity against vinblastine-resistant CCRF-CEM subline
Format: cell-based, human
experimental_parameters: Homo sapiens, CCRF-CEM, 72 h, read-out: IC50 CCRF-CEM/Vinblastine
Assign pIC50 to each entry below.
Answers are plain numbers, as −log10 of the molar value.

C=C[C@H](O)C#CC#CC[C@H]1OC(C)(C)O[C@@H]1CCCCCCC | 6.02

API: the following record is the query input.
For the molecule shown here, "C=C[C@@H](O)C#CC#CC[C@@H](O)[C@H](O)CCCCCCC" , give the reported pIC50.
5.19
